Assayed Target: human glucagon receptor (Homo sapiens (Human), UniProt P47871)
Sequence (P47871 26-477): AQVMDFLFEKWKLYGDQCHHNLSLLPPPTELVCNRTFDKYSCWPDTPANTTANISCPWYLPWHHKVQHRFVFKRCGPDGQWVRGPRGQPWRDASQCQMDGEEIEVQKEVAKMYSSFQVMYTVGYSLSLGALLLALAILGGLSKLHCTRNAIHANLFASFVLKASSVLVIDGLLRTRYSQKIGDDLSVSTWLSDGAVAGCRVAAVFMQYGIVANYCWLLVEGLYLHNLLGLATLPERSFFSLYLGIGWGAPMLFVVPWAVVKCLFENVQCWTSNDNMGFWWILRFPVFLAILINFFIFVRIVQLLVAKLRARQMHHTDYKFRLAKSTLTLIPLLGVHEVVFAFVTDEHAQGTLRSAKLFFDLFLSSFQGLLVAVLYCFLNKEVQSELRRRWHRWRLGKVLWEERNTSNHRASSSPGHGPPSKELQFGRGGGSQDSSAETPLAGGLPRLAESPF
Assay: Glucagon cAMP Assay (Cisbio cAMP detection)
Assay type: cell-based
Experimental Conditions: CHOK1 cells stably transfected with the human glucagon receptor; block of glucagon induced cAMP production; Kb by modified Cheng-Prusoff equation
Experimental: The Cisbio cAMP detection assay is used to determine the ability of punitive glucagon antagonist to block glucagon induced cAMP production. Potential glucagon antagonists are re-suspended and diluted in 100% DMSO. […] Plates are incubated for an additional 60 min at room temperature prior to being read on the Perkin Elmer fluorescent plate reader. […] Converted data is then analyzed using the Pfizer data analysis program. IC50 values are determined from the generated sigmoidal dose response curves. […]
If the reported Kb equals or exceeds 200 nM, assign yes (1). If not, assign no (0).

>>> group("CCCC(Nc1ccc(-n2cnc(C(F)(F)F)c2)nc1)c1ccc(C(=O)NCCC(=O)O)cc1 (single isomer, unassigned; isomer 1) [Example 10]")
"yes (1)"

Could you tell me if the measured Kb of Cc1cc(NC(CC(C)C)c2ccc(C(=O)NCCC(=O)O)cn2)cnc1-n1cc(C(F)(F)F)cn1 (racemic) reaches 200 nM or more?
yes (1)

Could you tell me if the measured Kb of CC1(C)CC(C(Nc2ccc(-n3cc(C(F)(F)F)cn3)nc2)c2ccc(C(=O)NCCC(=O)O)cc2)C1 (single isomer, unassigned) [Example 115] reaches 200 nM or more?
yes (1)

Could you tell me if the measured Kb of CCCC(Oc1ccc(-n2cnc(C)c2C)cc1)c1ccc(C(=O)NCCC(=O)O)cc1 (racemic) reaches 200 nM or more?
yes (1)

Could you tell me if the measured Kb of CC1(C)CC(C(Nc2cnc(-n3cc(C(F)(F)F)cn3)nc2)c2ccc(C(=O)NCCC(=O)O)cc2)C1 (single isomer, unassigned; isomer 2) [Example 158] reaches 200 nM or more?
no (0)

Could you tell me if the measured Kb of CCCC(Oc1ccc(-c2cnn(C)c2C)cc1)c1ccc(C(=O)NCCC(=O)O)cc1 (racemic) reaches 200 nM or more?
yes (1)

Could you tell me if the measured Kb of Cc1nn(-c2ccc(N[C@H](c3ccc(C(=O)NCCC(=O)O)cc3)C3CCCC3)cn2)cc1Cl (single isomer, unassigned; isomer 2) [Example 192] reaches 200 nM or more?
no (0)

Could you tell me if the measured Kb of CCCC(Nc1ccc(-n2cc(C(F)(F)F)cn2)nc1)c1ccc(C(=O)NCCC(=O)O)cc1F (single isomer, unassigned) [Example 110] reaches 200 nM or more?
no (0)

Could you tell me if the measured Kb of O=C(O)CCNC(=O)c1ccc(C(Nc2ccc(-n3cc(C(F)(F)F)cn3)nc2)C2CCOCC2)cc1 (racemic) reaches 200 nM or more?
yes (1)

Could you tell me if the measured Kb of CC(C)(C)C(Nc1ccc(-n2cc(C(F)(F)F)cn2)nc1)c1ccc(C(=O)NCCC(=O)O)cc1 (racemic) reaches 200 nM or more?
yes (1)

Could you tell me if the measured Kb of CCCC(Oc1ccc(-n2cc3cc(Cl)ccc3n2)cc1)c1ccc(C(=O)NCCC(=O)O)cc1 (stereo not shown) reaches 200 nM or more?
no (0)

Could you tell me if the measured Kb of CCCC(Oc1cc(C)c(-n2cc3ccccc3n2)c(C)c1)c1ccc(C(=O)NCCC(=O)O)cc1 (stereo not shown) reaches 200 nM or more?
yes (1)
